# Tested target: LRRK2 (Homo sapiens)
# Sequence (Q5S007 whole entry): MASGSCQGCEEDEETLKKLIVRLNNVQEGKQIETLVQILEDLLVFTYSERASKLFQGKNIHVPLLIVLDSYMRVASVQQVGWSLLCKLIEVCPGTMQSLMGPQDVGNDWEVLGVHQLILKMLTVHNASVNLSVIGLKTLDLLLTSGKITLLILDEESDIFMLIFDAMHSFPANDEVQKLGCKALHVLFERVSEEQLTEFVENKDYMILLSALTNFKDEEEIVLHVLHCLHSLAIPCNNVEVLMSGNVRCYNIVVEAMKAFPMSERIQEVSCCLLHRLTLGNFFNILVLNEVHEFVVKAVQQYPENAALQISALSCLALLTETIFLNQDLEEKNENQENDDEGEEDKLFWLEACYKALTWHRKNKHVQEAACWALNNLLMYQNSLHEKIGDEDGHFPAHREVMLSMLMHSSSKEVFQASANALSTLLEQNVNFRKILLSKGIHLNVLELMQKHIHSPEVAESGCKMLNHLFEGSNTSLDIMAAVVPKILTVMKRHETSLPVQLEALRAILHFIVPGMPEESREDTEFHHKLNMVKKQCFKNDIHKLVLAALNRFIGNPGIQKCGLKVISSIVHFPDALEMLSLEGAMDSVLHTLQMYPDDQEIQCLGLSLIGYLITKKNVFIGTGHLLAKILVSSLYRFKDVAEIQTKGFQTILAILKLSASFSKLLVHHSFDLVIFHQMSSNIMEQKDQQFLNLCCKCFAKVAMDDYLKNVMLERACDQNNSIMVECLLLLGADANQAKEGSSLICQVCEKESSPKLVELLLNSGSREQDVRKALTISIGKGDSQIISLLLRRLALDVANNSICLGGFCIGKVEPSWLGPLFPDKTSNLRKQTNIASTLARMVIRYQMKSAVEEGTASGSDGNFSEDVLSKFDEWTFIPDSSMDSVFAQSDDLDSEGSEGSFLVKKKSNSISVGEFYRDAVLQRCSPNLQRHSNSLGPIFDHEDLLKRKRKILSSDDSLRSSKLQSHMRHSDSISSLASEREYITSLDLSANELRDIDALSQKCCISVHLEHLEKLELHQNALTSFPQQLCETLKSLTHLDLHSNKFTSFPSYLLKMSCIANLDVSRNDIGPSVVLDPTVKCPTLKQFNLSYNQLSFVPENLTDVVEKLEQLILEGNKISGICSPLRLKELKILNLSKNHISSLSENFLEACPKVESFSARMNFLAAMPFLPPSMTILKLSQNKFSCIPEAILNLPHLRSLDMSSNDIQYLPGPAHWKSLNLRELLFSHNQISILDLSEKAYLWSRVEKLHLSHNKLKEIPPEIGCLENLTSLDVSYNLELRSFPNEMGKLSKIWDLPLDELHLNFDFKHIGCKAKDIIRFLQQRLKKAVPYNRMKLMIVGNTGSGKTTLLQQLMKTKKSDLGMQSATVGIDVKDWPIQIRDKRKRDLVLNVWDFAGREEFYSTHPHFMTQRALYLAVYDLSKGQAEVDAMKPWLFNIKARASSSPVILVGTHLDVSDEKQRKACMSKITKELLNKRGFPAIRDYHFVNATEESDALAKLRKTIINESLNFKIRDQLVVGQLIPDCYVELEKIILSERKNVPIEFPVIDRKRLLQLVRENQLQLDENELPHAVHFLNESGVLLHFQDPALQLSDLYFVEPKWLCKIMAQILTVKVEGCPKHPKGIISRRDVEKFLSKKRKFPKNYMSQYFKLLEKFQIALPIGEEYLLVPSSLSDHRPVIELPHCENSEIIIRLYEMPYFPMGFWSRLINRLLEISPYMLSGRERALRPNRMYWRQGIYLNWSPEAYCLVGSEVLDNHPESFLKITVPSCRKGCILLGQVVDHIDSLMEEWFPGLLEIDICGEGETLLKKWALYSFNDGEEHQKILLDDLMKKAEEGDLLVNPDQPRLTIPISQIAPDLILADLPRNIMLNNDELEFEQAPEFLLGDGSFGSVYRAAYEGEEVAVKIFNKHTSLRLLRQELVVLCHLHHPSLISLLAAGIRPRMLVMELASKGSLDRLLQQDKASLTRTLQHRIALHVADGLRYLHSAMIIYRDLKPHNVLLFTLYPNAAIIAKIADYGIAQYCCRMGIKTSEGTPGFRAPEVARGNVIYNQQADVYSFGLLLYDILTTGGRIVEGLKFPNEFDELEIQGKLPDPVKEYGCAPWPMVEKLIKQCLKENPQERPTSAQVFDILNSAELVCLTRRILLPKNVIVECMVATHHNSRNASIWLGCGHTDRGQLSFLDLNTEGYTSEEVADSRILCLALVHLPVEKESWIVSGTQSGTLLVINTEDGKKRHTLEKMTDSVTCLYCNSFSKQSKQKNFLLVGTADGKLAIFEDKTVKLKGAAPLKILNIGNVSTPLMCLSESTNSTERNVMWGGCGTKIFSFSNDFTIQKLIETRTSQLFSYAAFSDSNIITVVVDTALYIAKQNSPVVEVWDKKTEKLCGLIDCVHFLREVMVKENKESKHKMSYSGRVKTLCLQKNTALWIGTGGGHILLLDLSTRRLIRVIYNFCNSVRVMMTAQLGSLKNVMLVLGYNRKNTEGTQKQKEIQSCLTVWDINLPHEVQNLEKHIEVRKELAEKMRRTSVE
# Assay: experiment of inhibiting kinase activity, LRRK2
# Type: biochemical
# Experimental context: at 10 nM; read-out: inhibition rate LRRK2
# Procedure: The inhibition rates of tested compounds on JAK1, JAK2, JAK3, TYK2, CDK7, CDK9, EGFR (T790M) and LRRK2 kinases were measured. The test concentrations of the compounds were 10 nM and 100 nM, and the detection was performed by replicate wells. Alternatively, compounds were 3-fold serial diluted from 10 µM for 10 concentrations in replicate wells.
Endpoint name: inhibition at 0.01 µM

[[record]]
compound = "CN1CCOCCOc2cc(Nc3nc(-c4cnn(S(C)(=O)=O)c4)c4cc[nH]c4n3)ccc2OCC1"
endpoint_name = "inhibition at 0.01 µM"
recorded_result = "40 to 79%"

[[record]]
compound = "CN1CCOCCOc2ccc(Nc3nc(-c4ccc(C(=O)NCC#N)cc4)c4cc[nH]c4n3)cc2OCC1"
endpoint_name = "inhibition at 0.01 µM"
recorded_result = "25 to 39%"

[[record]]
compound = "CN1CCOCCOc2cc(Nc3nc(-c4cnn([C@H](CC#N)C5CCCC5)c4)c4cc[nH]c4n3)ccc2OCC1"
endpoint_name = "inhibition at 0.01 µM"
recorded_result = "40 to 79%"

[[record]]
compound = "CC(C)S(=O)(=O)c1ccccc1Nc1nc(Nc2ccc3c(c2)OCCN(C)CCOCCO3)nc2[nH]ncc12"
endpoint_name = "inhibition at 0.01 µM"
recorded_result = "25 to 39%"

[[record]]
compound = "CN1CCOCCOc2cc(Nc3nc(-c4cnn(C(CC#N)C5CCCC5)c4)c4cc[nH]c4n3)ccc2OCC1 (centres unmarked)"
endpoint_name = "inhibition at 0.01 µM"
recorded_result = "> 80%"


Enquiry: Fill blank: measured inhibition at 0.01 µM of the compound `CN1CCOc2ccc(Nc3nc(NCCS(C)(=O)=O)c4cc[nH]c4n3)cc2OCC1` is ____.
Return: 40 to 79%

Enquiry: Can you handle `CN1CCOc2ccc(Nc3nc(-c4cnn([C@@H](CC#N)C5CCCC5)c4)c4cc[nH]c4n3)cc2OCC1` next?
Return: > 80%

Enquiry: Can you handle `CN1CCOCCOc2ccc(Nc3nc(Nc4cccc(S(=O)(=O)NC(C)(C)C)c4)c4cc[nH]c4n3)cc2OCC1` next?
Return: 40 to 79%

Enquiry: Can you handle `CN1CCOc2ccc(Nc3nc(-c4cnn([C@H](CC#N)C5CCCC5)c4)c4cc[nH]c4n3)cc2OCC1` next?
Return: 40 to 79%

Enquiry: Can you handle `CN1CCOc2ccc(Nc3nc(N4C[C@H]5CC[C@@H](C4)N5C(=O)C4CC4)c4cc[nH]c4n3)cc2OCC1` next?
Return: 40 to 79%

Enquiry: Can you handle `CN1CCOCCOc2cc(Nc3nc(-c4ccc(C(=O)NCC#N)cc4)c4cc[nH]c4n3)ccc2OCC1` next?
Return: 40 to 79%

Enquiry: Can you handle `CC(C)S(=O)(=O)c1ccccc1Nc1nc(Nc2ccc3c(c2)OCCN(C)CCOCCO3)nc2[nH]ccc12` next?
Return: > 80%

Enquiry: Can you handle `CCS(=O)(=O)N1CC(CC#N)(n2cc(-c3nc(Nc4ccc5c(c4)OCCN(C)CCOCCO5)ncc3F)cn2)C1` next?
Return: 25 to 39%

Enquiry: Can you handle `CN1CCOCCOc2cc(Nc3nc(-c4cnn([C@@H](CC#N)C5CCCC5)c4)c4cc[nH]c4n3)ccc2OCC1` next?
Return: > 80%

Enquiry: Can you handle CN1CCOCCOc2ccc(Nc3nc(-c4cnn(C(CC#N)C5CCCC5)c4)c4cc[nH]c4n3)cc2OCC1 (centres unmarked) next?
Return: > 80%

Enquiry: Can you handle `CC(C)S(=O)(=O)c1ccccc1Nc1nc(Nc2ccc3c(c2)OCCN(C)CCO3)nc2[nH]ccc12` next?
Return: > 80%

Enquiry: Can you handle `CCS(=O)(=O)N1CC(CC#N)(n2cc(-c3nc(Nc4ccc5c(c4)OCCN(C)CCOCCO5)nc4[nH]ccc34)cn2)C1` next?
Return: 40 to 79%
